measured_target: recombinant human KLK5 (Homo sapiens)
protocol_summary: Kallikrein (KLK) 5 enzymatic assay (Boc-VPR-AMC fluorogenic substrate)
applied_conditions: recombinant human KLK5 0.1 μg/well, Boc-VPR-AMC 100 μM, pH 7.5, room temperature, 1% DMSO; tested a minimum of three times
Consider the following molecules; for each one, report its IC50.

INPUT: # value lookup — system recombinant human KLK5 (Homo sapiens), readout IC50, item COc1cccc(CC(=O)O)c1OCc1coc2c(OC)cc(-c3ccc4ccnc(N)c4c3)cc12 [Compound 267g]
OUTPUT: > 10000 nM

INPUT: Request: CC(C)CCN1CC(n2nc(COc3ccccc3CC(=O)O)c3cc(-c4cccc5c(N)nccc45)ccc32)C1 [Compound 144c]
OUTPUT: < 1000 nM

INPUT: Next molecule: COC(=O)Cc1ccc(OC)cc1OCc1c2cc(-c3ccc4ccnc(N)c4c3)ccc2nn1C1CCOC1 (stereo not shown) [Compound 13d]
OUTPUT: > 10000 nM

INPUT: Thanks! And COc1ccc(CC(=O)O)c(OCc2nn(C(C)C)c3ccc(-c4cccc(C(=N)N)c4)cc23)c1 [Compound 5e] ?
OUTPUT: < 1000 nM

INPUT: What do you get for Nc1nccc2c(-c3ccc4c(c3)c(COc3cccc(OC(F)(F)F)c3CC(=O)O)nn4C3CCOC3)cccc12 (stereo not shown) [Compound 289b] ?
OUTPUT: < 1000 nM

INPUT: Now give it for CC1CC(n2nc(COc3ccccc3CC(=O)O)c3cc(-c4ccc5ccnc(N)c5c4)ccc32)C1 (stereo not shown) [Compound 9j] too.
OUTPUT: < 1000 nM

INPUT: # iterate: CC(C)n1nc(COc2ccccc2CC(=O)O)c2cc(-c3ccc4ncnc(N)c4c3)ccc21 [Compound 39c]
OUTPUT: > 10000 nM

----------
Could you please report measured IC50 for the items listed next?
measured_target: recombinant human KLK5 (Homo sapiens, UniProt Q9Y337)
Sequence (Q9Y337 23-293): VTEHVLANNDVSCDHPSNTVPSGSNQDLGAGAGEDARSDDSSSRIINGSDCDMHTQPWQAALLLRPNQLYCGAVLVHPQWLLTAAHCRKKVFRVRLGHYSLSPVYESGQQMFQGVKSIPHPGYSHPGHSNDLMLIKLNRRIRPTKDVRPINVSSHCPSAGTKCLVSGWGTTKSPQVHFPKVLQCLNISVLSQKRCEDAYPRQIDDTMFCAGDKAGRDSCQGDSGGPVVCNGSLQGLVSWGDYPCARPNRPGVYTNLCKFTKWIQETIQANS
protocol_summary: Kallikrein (KLK) 5 enzymatic assay (Boc-VPR-AMC fluorogenic substrate)
applied_conditions: recombinant human KLK5 0.1 μg/well, Boc-VPR-AMC 100 μM, pH 7.5, room temperature, 1% DMSO; tested a minimum of three times

INPUT: State the recorded IC50 for this entry: CCOC(=O)N1CCC2(CC1)CC(Oc1cccc(C)c1CC(=O)O)c1cc(-c3ccc4ccnc(N)c4c3)ccc12 (stereo not shown) [Compound 404c]
OUTPUT: < 1 µM

INPUT: What do we get for CCOC(=O)Cc1cccc(C#N)c1OCc1nn(C2CCC2)c2ccc(Br)cc12 [Compound 174c] ?
OUTPUT: 1 to 10 µM

INPUT: Input CC(C)n1nc(COc2ccccc2CC(=O)O)c2cc(-c3cccc(C(=N)N)c3)ccc21
OUTPUT: < 1 µM

INPUT: Again, but for Nc1nccc2c(-c3ccc4c(c3)c(COc3ccccc3CC(=O)O)nn4C3CCCCC3)cccc12 [Compound 225b]
OUTPUT: < 1 µM

INPUT: Next up: CC[C@@H](C)n1nc(COc2ccccc2CC(=O)O)c2cc(-c3cccc4c(N)nccc34)ccc21 [Compound 191b]
OUTPUT: < 1 µM

INPUT: For CC(C)n1nc(COc2ccccc2CC(=O)O)c2cc(-c3ccc4ccc(N)nc4c3)ccc21 [Compound 50c] then?
OUTPUT: > 10 µM

INPUT: Let us now turn to CCN1CCC2(CC1)C[C@@H](Oc1ccccc1CC(=O)O)c1cc(-c3ccc4ccnc(N)c4c3)ccc12 [Compound 436b]
OUTPUT: < 1 µM
